The origin of these recorded values is patent US4873253A.

IC50 values, listed per item
- target system: human plasma kallikrein (Homo sapiens, UniProt P03952)
- Sequence (P03952 391-638 limits assumed): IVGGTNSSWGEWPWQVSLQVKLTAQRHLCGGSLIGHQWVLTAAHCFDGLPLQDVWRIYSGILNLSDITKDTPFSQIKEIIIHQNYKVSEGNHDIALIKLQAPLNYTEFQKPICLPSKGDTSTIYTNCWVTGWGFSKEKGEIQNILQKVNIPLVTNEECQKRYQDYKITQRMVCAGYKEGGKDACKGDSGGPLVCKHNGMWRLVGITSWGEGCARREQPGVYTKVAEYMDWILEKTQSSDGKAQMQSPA
- Sequence (P03952 20-390 limits assumed): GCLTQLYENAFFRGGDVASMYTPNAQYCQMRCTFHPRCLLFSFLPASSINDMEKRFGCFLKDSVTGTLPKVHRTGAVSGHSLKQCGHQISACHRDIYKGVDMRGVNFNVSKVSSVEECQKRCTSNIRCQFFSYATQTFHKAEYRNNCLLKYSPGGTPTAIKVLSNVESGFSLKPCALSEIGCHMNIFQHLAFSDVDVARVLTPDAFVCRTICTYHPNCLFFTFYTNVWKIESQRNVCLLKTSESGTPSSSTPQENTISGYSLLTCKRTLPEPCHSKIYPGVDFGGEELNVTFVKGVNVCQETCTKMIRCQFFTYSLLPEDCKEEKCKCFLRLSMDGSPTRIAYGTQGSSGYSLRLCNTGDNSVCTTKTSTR
- experiment notes: Anti-plasma kallikrein activity: inhibition of S-2302 decomposition
- Type: biochemical
- stated conditions: Table 2; substrate S-2302, pH 7.8, 37° C.; read-out: Plasma Kallikrein S-2302 I50
Where a name gives a salt, the structure may show the parent alone.

The examples below pair each entry with its known result.
CCOC(=O)C1CCN(C(=O)C(Cc2cccc(Oc3ccccc3)c2)NC(=O)[C@H]2CC[C@H](CNC(=N)N)CC2)CC1 (some centres unmarked) [Compound 31]    > 100 µM
NC[C@H]1CC[C@H](C(=O)NC(Cc2cccc(Oc3ccccc3)c2)C(N)=O)CC1 (mixture of isomers) [Compound 21, hydrochloride]    > 400 µM
CCOC(=O)C1CCN(C(=O)C(Cc2cccc(Oc3ccccc3)c2)NC(=O)[C@H]2CC[C@H](CN)CC2)CC1 (some centres unmarked) [Compound 18]    > 500 µM
CCOC(=O)C1CCCCN1C(=O)C(Cc1cccc(Oc2ccc(Br)cn2)c1)NC(=O)[C@H]1CC[C@H](CN)CC1 (some centres unmarked) [Compound 26]    > 1000 µM

Let us examine a further case.
compound NC[C@H]1CC[C@H](C(=O)NC(Cc2cccc(Oc3ccccc3)c2)C(=O)Nc2ccccn2)CC1 (some centres unmarked) [Compound 6] , IC50 observed: 11 µM
